Provenance of the data: PubChem BioAssay

target: Neurogenic locus notch homolog protein 3 (Homo sapiens) (UniProt Q9UM47); experiment: NOTCH3 binders on small-molecule microarray, primary screen, biochemical, 635/667 nm fluorescence (AID 1096); details: NOTCH3 binding, 635 nm fluorescence, higher = more signal
Sequence (Q9UM47 whole entry, looked up): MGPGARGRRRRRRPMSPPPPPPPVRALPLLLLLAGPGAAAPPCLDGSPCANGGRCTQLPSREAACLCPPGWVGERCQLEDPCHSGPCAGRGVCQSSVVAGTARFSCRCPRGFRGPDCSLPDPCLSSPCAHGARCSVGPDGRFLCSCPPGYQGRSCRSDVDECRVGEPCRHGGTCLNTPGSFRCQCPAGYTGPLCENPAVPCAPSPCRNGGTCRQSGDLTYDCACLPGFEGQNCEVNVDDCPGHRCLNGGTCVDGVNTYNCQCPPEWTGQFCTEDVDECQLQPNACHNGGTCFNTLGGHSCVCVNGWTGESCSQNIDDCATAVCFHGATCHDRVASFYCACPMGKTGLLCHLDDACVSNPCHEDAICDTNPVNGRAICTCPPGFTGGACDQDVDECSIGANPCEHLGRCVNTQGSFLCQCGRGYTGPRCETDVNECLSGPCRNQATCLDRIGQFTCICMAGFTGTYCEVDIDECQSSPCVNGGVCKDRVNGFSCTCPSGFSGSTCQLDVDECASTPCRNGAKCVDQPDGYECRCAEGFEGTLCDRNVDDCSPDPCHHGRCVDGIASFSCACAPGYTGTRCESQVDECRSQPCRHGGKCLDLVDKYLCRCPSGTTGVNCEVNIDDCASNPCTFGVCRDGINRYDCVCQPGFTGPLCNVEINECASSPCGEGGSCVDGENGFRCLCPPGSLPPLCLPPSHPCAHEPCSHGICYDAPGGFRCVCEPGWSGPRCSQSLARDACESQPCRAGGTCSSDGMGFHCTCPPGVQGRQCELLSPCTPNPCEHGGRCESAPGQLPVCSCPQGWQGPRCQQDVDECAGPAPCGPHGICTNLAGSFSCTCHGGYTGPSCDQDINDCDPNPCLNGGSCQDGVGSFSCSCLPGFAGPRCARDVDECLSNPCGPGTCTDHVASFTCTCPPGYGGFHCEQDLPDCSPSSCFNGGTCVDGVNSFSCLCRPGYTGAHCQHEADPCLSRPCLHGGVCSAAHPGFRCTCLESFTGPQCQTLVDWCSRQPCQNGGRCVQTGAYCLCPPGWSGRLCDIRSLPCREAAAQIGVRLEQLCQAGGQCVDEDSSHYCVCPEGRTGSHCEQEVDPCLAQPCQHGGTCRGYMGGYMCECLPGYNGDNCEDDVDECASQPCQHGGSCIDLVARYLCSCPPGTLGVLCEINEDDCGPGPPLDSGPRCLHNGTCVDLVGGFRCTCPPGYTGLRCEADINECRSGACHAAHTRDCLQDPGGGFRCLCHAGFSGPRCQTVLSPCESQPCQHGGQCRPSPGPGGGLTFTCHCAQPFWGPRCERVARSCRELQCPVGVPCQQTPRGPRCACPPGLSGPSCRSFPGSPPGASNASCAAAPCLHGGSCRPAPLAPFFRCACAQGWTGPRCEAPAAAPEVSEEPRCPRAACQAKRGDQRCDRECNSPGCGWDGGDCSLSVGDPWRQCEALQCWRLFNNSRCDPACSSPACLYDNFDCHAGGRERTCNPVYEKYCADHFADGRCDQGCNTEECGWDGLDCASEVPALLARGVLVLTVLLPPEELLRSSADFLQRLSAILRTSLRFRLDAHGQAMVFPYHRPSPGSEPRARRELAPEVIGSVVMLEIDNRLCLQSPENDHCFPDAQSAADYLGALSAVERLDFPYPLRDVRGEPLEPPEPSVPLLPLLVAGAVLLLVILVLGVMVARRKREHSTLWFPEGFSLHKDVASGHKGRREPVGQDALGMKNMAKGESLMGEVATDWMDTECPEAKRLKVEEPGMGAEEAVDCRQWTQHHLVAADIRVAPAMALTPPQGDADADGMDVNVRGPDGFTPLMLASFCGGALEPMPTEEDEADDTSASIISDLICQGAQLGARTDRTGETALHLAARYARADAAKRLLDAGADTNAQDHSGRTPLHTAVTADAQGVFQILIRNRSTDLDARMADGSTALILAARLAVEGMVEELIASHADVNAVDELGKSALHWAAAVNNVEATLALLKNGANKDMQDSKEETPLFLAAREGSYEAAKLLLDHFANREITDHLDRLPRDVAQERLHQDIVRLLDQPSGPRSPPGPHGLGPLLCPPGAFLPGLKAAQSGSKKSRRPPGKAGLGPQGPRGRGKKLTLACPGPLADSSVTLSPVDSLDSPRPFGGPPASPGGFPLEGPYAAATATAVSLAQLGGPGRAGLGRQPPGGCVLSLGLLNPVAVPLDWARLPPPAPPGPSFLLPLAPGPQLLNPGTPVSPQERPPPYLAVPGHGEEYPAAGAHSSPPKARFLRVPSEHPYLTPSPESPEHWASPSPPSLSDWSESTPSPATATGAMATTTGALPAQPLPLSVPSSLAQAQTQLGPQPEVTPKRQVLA
Known composite z-score of a selection of compounds

- compound: "CC(CO)N1C(=O)[C@@H]2C3C(=O)OCCC/C=C\\[C@H]3OC23C=CCN(C(C)(C)C)C(=O)[C@@H]13 (stereo partly drawn)"
  composite z-score: 0.201
- compound: "C=C(C)[C@@H]1CC=C(C(O)C2C=CC3C(=O)N(C)C(=O)C3N2Nc2ccccc2)CC1 (stereo partly drawn)"
  composite z-score: 1.08
- compound: "CO[C@H]1O[C@H](CO)[C@@H](OC(=O)Nc2cccc(F)c2)[C@H](OC(=O)Nc2ccccc2)[C@@H]1OC(=O)Nc1ccccc1"
  composite z-score: 1.09
- compound: "CC(C)C(=C=CC[C@H](O)c1ccc(OCCO)cc1)CCO"
  composite z-score: -0.0409
- compound: "COc1cc2c(cc1O)C(c1cccs1)N(C)CC2 (stereo not drawn)"
  composite z-score: -0.0102
- compound: "COc1ccc(C(O)C2C=CC3C(=O)N(Cc4ccccc4)C(=O)C3N2n2cnnc2)cc1OCc1ccccc1 (stereo not drawn)"
  composite z-score: 0.331
- compound: "CCC(CC)C(O)C1C=CC2C(=O)NC(=O)C2N1Nc1ccc(Cl)cc1Cl (stereo not drawn)"
  composite z-score: 1.01
- compound: "CCOC(=O)C[C@H]1[C@H](OC(=O)c2ccccc2-c2ccccc2)[C@@H](NC(=O)CC(C)C)c2cc(OCCCO)ccc2N1C(=O)Cc1ccc(OC)cc1"
  composite z-score: -0.23
